Assay: Antioxidant activity assessed as trolox equivalents of cupric reducing antioxidant capacity after 30 mins
Assay type: functional
Readings of TEAC (Trolox equivalents) for the listed molecules

molecule	TEAC (Trolox equivalents)
COc1ccc(/C=C(/NC(=O)c2ccccc2)C(=O)NCC(=O)N(C(=O)NC2CCCCC2)C2CCCCC2)cc1	1.24
Cc1ccc(/C=C(/NC(=O)c2ccccc2)C(=O)NCC(=O)N(C(=O)NC2CCCCC2)C2CCCCC2)cc1	1.24
O=C1O[C@H]([C@@H](O)CO)C(O)=C1O	2.63
O=C(NC(CS)C(=O)N(C(=O)NC1CCCCC1)C1CCCCC1)/C(=C\c1ccc(F)cc1)NC(=O)c1ccccc1 (stereo unspecified)	3.6
O=C(NC(CS)C(=O)N(C(=O)NC1CCCCC1)C1CCCCC1)/C(=C\c1ccc(Cl)cc1)NC(=O)c1ccccc1 (stereo unspecified)	2.65
CC(C)c1ccc(/C=C(/NC(=O)c2ccccc2)C(=O)NCC(=O)N(C(=O)NC2CCCCC2)C2CCCCC2)cc1	1.19
COc1cc(/C=C(/NC(=O)c2ccccc2)C(=O)NC(CS)C(=O)N(C(=O)NC2CCCCC2)C2CCCCC2)ccc1O (stereo unspecified)	3.6
Cc1ccc(/C=C(/NC(=O)c2ccccc2)C(=O)NC(CS)C(=O)N(C(=O)NC2CCCCC2)C2CCCCC2)cc1 (stereo unspecified)	2.36
O=C(NC(CS)C(=O)N(C(=O)NC1CCCCC1)C1CCCCC1)/C(=C\c1ccc(O)cc1)NC(=O)c1ccccc1 (stereo unspecified)	3.91
CC(C)c1ccc(/C=C(/NC(=O)c2ccccc2)C(=O)NC(CS)C(=O)N(C(=O)NC2CCCCC2)C2CCCCC2)cc1 (stereo unspecified)	2.36
O=C(NCC(=O)N(C(=O)NC1CCCCC1)C1CCCCC1)/C(=C\c1ccc(F)cc1)NC(=O)c1ccccc1	1.22
COc1ccc(/C=C(/NC(=O)c2ccccc2)C(=O)NC(CS)C(=O)N(C(=O)NC2CCCCC2)C2CCCCC2)cc1 (stereo unspecified)	2.91
O=C(NCC(=O)N(C(=O)NC1CCCCC1)C1CCCCC1)/C(=C\c1ccc(Cl)cc1)NC(=O)c1ccccc1	0.93
O=C(NC(CS)C(=O)N(C(=O)NC1CCCCC1)C1CCCCC1)/C(=C\c1ccccc1)NC(=O)c1ccccc1 (stereo unspecified)	3.84
O=C(NCC(=O)N(C(=O)NC1CCCCC1)C1CCCCC1)/C(=C\c1ccccc1)NC(=O)c1ccccc1	0.89
O=C(NCC(=O)N(C(=O)NC1CCCCC1)C1CCCCC1)/C(=C\c1ccc(O)cc1)NC(=O)c1ccccc1	2.91

The origin of these recorded values is ChEMBL document CHEMBL3232756.
